# measured on: CDK9 (cyclin K) (Homo sapiens)
# Sequence (P50750 whole entry): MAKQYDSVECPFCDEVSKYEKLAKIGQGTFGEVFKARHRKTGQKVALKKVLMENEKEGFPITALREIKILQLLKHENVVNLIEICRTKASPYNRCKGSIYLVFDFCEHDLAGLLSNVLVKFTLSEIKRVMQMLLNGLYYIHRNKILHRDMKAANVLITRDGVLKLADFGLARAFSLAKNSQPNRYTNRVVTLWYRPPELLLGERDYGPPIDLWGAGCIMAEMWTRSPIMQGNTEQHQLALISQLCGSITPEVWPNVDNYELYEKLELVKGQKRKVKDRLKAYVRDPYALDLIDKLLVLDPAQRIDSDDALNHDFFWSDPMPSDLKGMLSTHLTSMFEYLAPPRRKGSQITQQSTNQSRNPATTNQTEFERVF
# Sequence (O75909 whole entry partner): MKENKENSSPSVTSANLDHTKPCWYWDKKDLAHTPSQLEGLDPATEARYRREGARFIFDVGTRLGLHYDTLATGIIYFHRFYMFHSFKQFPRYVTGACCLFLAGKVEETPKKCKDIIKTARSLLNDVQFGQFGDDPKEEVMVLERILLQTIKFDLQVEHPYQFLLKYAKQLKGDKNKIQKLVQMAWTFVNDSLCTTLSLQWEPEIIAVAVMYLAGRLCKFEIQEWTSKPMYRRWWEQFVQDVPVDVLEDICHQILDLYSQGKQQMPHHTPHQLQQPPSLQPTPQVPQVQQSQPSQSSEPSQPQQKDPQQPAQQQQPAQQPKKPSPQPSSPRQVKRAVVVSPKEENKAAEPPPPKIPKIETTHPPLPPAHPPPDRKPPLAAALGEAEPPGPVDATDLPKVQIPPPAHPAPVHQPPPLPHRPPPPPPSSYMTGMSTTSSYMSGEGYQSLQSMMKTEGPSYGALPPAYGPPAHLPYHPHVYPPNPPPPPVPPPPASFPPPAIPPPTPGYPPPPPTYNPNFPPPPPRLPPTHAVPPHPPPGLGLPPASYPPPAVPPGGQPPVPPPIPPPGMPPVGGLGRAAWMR
quantity: pIC50
Formally, pIC50 is defined as -log10 of the concentration c, with c in mol/L.

Task: Give the value of pIC50 reported for the following: "N#Cc1cc2cnc(Nc3ccc4c(c3)CCN(CCN)C4)nc2n(C2CCCC2)c1=O"
Output: 7.08

----------
# measured on: CDK4 (Homo sapiens, UniProt P11802)
# Sequence (P11802 whole entry): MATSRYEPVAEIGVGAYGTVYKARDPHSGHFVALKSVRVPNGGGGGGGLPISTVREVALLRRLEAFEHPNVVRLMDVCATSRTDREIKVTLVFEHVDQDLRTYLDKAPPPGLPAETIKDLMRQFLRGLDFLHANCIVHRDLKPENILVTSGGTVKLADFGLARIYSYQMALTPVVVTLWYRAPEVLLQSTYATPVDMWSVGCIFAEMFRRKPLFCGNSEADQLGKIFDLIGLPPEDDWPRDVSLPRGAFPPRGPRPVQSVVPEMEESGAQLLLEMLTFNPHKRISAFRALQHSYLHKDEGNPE
# Sequence (P24385 whole entry partner): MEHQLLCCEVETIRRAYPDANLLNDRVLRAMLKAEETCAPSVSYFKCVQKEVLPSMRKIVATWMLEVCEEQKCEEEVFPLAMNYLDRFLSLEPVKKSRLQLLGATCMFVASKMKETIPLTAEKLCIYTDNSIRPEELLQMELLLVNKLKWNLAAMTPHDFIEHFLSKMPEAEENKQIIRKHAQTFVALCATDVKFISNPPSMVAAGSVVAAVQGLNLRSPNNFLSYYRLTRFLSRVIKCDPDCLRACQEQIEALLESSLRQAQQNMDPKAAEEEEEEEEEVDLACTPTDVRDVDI
# assay overview: In vitro kinase inhibition IC50, luminescence (ADP Glo), retinoblastoma substrate
# setup conditions: read-out: CDK4/D1 IC50
Ranges used to classify IC50: lower level (below 0.006 µM), middle level (0.006 µM to below 0.03 µM), upper level (0.03 µM or more)

{"compound": "CN1CCC(n2cc(Nc3ncc4cc(C#N)c(=O)n(C5CCCC5)c4n3)cn2)CC1 [Compound No. 325]", "assigned category": "upper level"}
{"compound": "N#Cc1cc2cnc(Nc3ccc4c(c3)CCNC4)nc2n(C2CCC(F)(F)C2)c1=O (stereo not shown) [Compound No. 344]", "assigned category": "upper level"}
{"compound": "CN1CCC(c2ccc(Nc3ncc4cc(C#N)c(=O)n(C5CCCC5)c4n3)cc2F)CC1 [Compound No. 46]", "assigned category": "middle level"}

Task: Bin? N#Cc1cc2cnc(Nc3ccc(N4CCNCC4)cc3F)nc2n(C2CCCC2)c1=O [Compound No. 26]
Output: upper level

Task: Bin? CS(=O)(=O)N1CCC(Nc2ncc3cc(C#N)c(=O)n(C4CC5CC5C4)c3n2)CC1 (stereo not shown) [Compound No. 341]
Output: lower level

Task: Bin? CS(=O)(=O)N1CCC(Nc2ncc3cc(C#N)c(=O)n(C4CCCC4)c3n2)CC1 [Compound No. 93]
Output: lower level

Task: Bin? Cn1ccc(S(=O)(=O)N2CCC(Nc3ncc4cc(C#N)c(=O)n(C5CCCC5)c4n3)CC2)n1 [Compound No. 373]
Output: lower level
